tested on: hypothermic effect caused by reserpine; assay: Reserpine antagonism (elimination of the hypothermic effect caused by reserpine); type: in vivo; details: Mus musculus; mice, oral, 17 h after 2 mg/kg i.p. reserpine; 5 hours; read-out: Reserpine antagonism after 5 hours (ED50)
So I've got a bunch of compounds here, and I need their ED50 values.

Data point: CN1Cc2c(cc(Br)n2C)C(c2ccc(Br)cc2)C1 (stereo not drawn) ; ED50 = < 10 mg/kg

For CN1Cc2c(ccn2C)C(c2ccc(F)cc2)C1.Cl (stereo not drawn) the compound record lists ED50 as < 10 mg/kg

// ED50 value for CN1Cc2c(ccn2C)C(c2ccc(Cl)cc2)C1.Cl (stereo not drawn) : < 10 mg/kg
